Hello, the source for this data is patent US20230322797A1, in case you need it.

test: Solubility of Compound 1 salts in organic solvents (solvent volumes); format: physicochemical; settings: EtOAc
Where a name gives a salt, the structure may show the parent alone.
Measure name: Solubility, Volume (at 10-20° C.)

What does the data say about its Solubility, Volume (at 10-20° C.)? Entry: CCn1nc(Cl)c2c1-c1cnc(N)c(c1)O[C@H](C)c1cc(F)ccc1-c1nn(C)cc1C2 [MSA salt]
300-400 V

What does the data say about its Solubility, Volume (at 10-20° C.)? Entry: CCn1nc(Cl)c2c1-c1cnc(N)c(c1)O[C@H](C)c1cc(F)ccc1-c1nn(C)cc1C2 [H3PO4 salt]
>100 V

What does the data say about its Solubility, Volume (at 10-20° C.)? Entry: CCn1nc(Cl)c2c1-c1cnc(N)c(c1)O[C@H](C)c1cc(F)ccc1-c1nn(C)cc1C2 [Citric Acid salt]
>400 V

What does the data say about its Solubility, Volume (at 10-20° C.)? Entry: CCn1nc(Cl)c2c1-c1cnc(N)c(c1)O[C@H](C)c1cc(F)ccc1-c1nn(C)cc1C2 [L-Tartaric Acid Salt]
12-14 V

What does the data say about its Solubility, Volume (at 10-20° C.)? Entry: CCn1nc(Cl)c2c1-c1cnc(N)c(c1)O[C@H](C)c1cc(F)ccc1-c1nn(C)cc1C2 [Fumaric Acid salt]
80-90 V

---

Catalogue of Solubility, Volume (at 10-20° C.) values
test: Solubility of Compound 1 salts in organic solvents (solvent volumes); assay type: physicochemical; conditions: CPME
Structures can show the parent of a compound that is named as a salt.

Example results:
- CCn1nc(Cl)c2c1-c1cnc(N)c(c1)O[C@H](C)c1cc(F)ccc1-c1nn(C)cc1C2 [Citric Acid salt]: 330 V
- CCn1nc(Cl)c2c1-c1cnc(N)c(c1)O[C@H](C)c1cc(F)ccc1-c1nn(C)cc1C2 [H3PO4 salt]: >500 V
- CCn1nc(Cl)c2c1-c1cnc(N)c(c1)O[C@H](C)c1cc(F)ccc1-c1nn(C)cc1C2 [HCl salt]: >500 V
- CCn1nc(Cl)c2c1-c1cnc(N)c(c1)O[C@H](C)c1cc(F)ccc1-c1nn(C)cc1C2 [MSA salt]: >400 V
- CCn1nc(Cl)c2c1-c1cnc(N)c(c1)O[C@H](C)c1cc(F)ccc1-c1nn(C)cc1C2 [TsOH salt]: >400 V
- CCn1nc(Cl)c2c1-c1cnc(N)c(c1)O[C@H](C)c1cc(F)ccc1-c1nn(C)cc1C2 [Fumaric Acid salt]: 50-60 V
- CCn1nc(Cl)c2c1-c1cnc(N)c(c1)O[C@H](C)c1cc(F)ccc1-c1nn(C)cc1C2 [L-Tartaric Acid Salt]: 60-70 V
- CCn1nc(Cl)c2c1-c1cnc(N)c(c1)O[C@H](C)c1cc(F)ccc1-c1nn(C)cc1C2 [Salicylic acid salt]: 100-140 V

Next compound, please.
What does the data say about its Solubility, Volume (at 10-20° C.)? Entry: CCn1nc(Cl)c2c1-c1cnc(N)c(c1)O[C@H](C)c1cc(F)ccc1-c1nn(C)cc1C2 [Maleic Acid salt]
220 V

---

Catalogue of Solubility, Volume (at 10-20° C.) values
test: Solubility of Compound 1 salts in organic solvents (solvent volumes); type: physicochemical; details: 2-MeTHF
Counter-ions that a name gives are not always drawn.

• CCn1nc(Cl)c2c1-c1cnc(N)c(c1)O[C@H](C)c1cc(F)ccc1-c1nn(C)cc1C2 [MSA salt] = >400 V
• CCn1nc(Cl)c2c1-c1cnc(N)c(c1)O[C@H](C)c1cc(F)ccc1-c1nn(C)cc1C2 [Salicylic acid salt] = 18-20 V
• CCn1nc(Cl)c2c1-c1cnc(N)c(c1)O[C@H](C)c1cc(F)ccc1-c1nn(C)cc1C2 [H3PO4 salt] = >160 V

What does the data say about its Solubility, Volume (at 10-20° C.)? Entry: CCn1nc(Cl)c2c1-c1cnc(N)c(c1)O[C@H](C)c1cc(F)ccc1-c1nn(C)cc1C2 [Maleic Acid salt]
50-60 V

---

experiment: Solid-form stability study of salts of Compound 2 (75% RH, 40° C., 7 days); format: physicochemical; conditions: HPLC, after 7 days at 75% RH and 40° C.
Structures can show the parent of a compound that is named as a salt.
Measure name: Purity (%) After
All answers are understood in %, so give the number only.

Example results:
• CCn1cc(Cc2cn(C)nc2-c2ccc(F)cc2[C@@H](C)Oc2cc(Br)cnc2N)c(Cl)n1 [Camsylate Salt] = 99.65
• CCn1cc(Cc2cn(C)nc2-c2ccc(F)cc2[C@@H](C)Oc2cc(Br)cnc2N)c(Cl)n1 [Sulfate Salt] = 99.97
• CCn1cc(Cc2cn(C)nc2-c2ccc(F)cc2[C@@H](C)Oc2cc(Br)cnc2N)c(Cl)n1 [Mesylate Salt] = 99.94

Next molecule, please.
What does the data say about its Purity (%) After? Entry: CCn1cc(Cc2cn(C)nc2-c2ccc(F)cc2[C@@H](C)Oc2cc(Br)cnc2N)c(Cl)n1 [Esylate Salt]
99.75

---

test: Solubility of Compound 1 salts in organic solvents (solvent volumes); assay type: physicochemical; conditions: THF
Where a name gives a salt, the structure may show the parent alone.
Catalogue of Solubility, Volume (at 10-20° C.) values

Example results:
• CCn1nc(Cl)c2c1-c1cnc(N)c(c1)O[C@H](C)c1cc(F)ccc1-c1nn(C)cc1C2 [MSA salt] = 60-100 V
• CCn1nc(Cl)c2c1-c1cnc(N)c(c1)O[C@H](C)c1cc(F)ccc1-c1nn(C)cc1C2 [TsOH salt] = 280-300 V
• CCn1nc(Cl)c2c1-c1cnc(N)c(c1)O[C@H](C)c1cc(F)ccc1-c1nn(C)cc1C2 [Maleic Acid salt] = 2-4 V
• CCn1nc(Cl)c2c1-c1cnc(N)c(c1)O[C@H](C)c1cc(F)ccc1-c1nn(C)cc1C2 [H3PO4 salt] = >160 V
• CCn1nc(Cl)c2c1-c1cnc(N)c(c1)O[C@H](C)c1cc(F)ccc1-c1nn(C)cc1C2 [HCl salt] = 300-400 V

Next molecule, please.
What does the data say about its Solubility, Volume (at 10-20° C.)? Entry: CCn1nc(Cl)c2c1-c1cnc(N)c(c1)O[C@H](C)c1cc(F)ccc1-c1nn(C)cc1C2 [L-Tartaric Acid Salt]
8-10 V

---

experiment: Solubility of Compound 1 salts in organic solvents (solvent volumes); assay type: physicochemical; conditions: EtOAc
Where a name gives a salt, the structure may show the parent alone.
Measure name: Solubility, Volume (at 10-20° C.)

What does the data say about its Solubility, Volume (at 10-20° C.)? Entry: CCn1nc(Cl)c2c1-c1cnc(N)c(c1)O[C@H](C)c1cc(F)ccc1-c1nn(C)cc1C2 [Salicylic acid salt]
26-30 V

What does the data say about its Solubility, Volume (at 10-20° C.)? Entry: CCn1nc(Cl)c2c1-c1cnc(N)c(c1)O[C@H](C)c1cc(F)ccc1-c1nn(C)cc1C2 [TsOH salt]
18-20 V

What does the data say about its Solubility, Volume (at 10-20° C.)? Entry: CCn1nc(Cl)c2c1-c1cnc(N)c(c1)O[C@H](C)c1cc(F)ccc1-c1nn(C)cc1C2 [HCl salt]
>400 V

What does the data say about its Solubility, Volume (at 10-20° C.)? Entry: CCn1nc(Cl)c2c1-c1cnc(N)c(c1)O[C@H](C)c1cc(F)ccc1-c1nn(C)cc1C2 [Maleic Acid salt]
20-30 V

---

Catalogue of Solubility, Volume (at 10-20° C.) values
Assay: Solubility of Compound 1 salts in organic solvents (solvent volumes)
Assay type: physicochemical
Conditions: IPA
Description: Preparation of Additional Salts: Additional salts shown in the Table below were prepared using procedures similar to those described above and the solubility of the resulting salts of Compound 1 was evaluated.
Structures can show the parent of a compound that is named as a salt.

Example results:
• CCn1nc(Cl)c2c1-c1cnc(N)c(c1)O[C@H](C)c1cc(F)ccc1-c1nn(C)cc1C2 [Citric Acid salt] = 24-28 V
• CCn1nc(Cl)c2c1-c1cnc(N)c(c1)O[C@H](C)c1cc(F)ccc1-c1nn(C)cc1C2 [HCl salt] = 8-10 V

What does the data say about its Solubility, Volume (at 10-20° C.)? Entry: CCn1nc(Cl)c2c1-c1cnc(N)c(c1)O[C@H](C)c1cc(F)ccc1-c1nn(C)cc1C2 [Salicylic acid salt]
300-400 V

---

assay: Solubility of salts of Compound 2 and free base in distilled water (gravimetric); type: physicochemical; details: distilled water, RT, stirred 3 days, gravimetric
Structures can show the parent of a compound that is named as a salt.
Measure name: Solubility (mg solid/mL water)
All answers are understood in mg solid/mL water, so give the number only.

What does the data say about its Solubility (mg solid/mL water)? Entry: CCn1cc(Cc2cn(C)nc2-c2ccc(F)cc2[C@@H](C)Oc2cc(Br)cnc2N)c(Cl)n1 [Esylate Salt]
5

What does the data say about its Solubility (mg solid/mL water)? Entry: CCn1cc(Cc2cn(C)nc2-c2ccc(F)cc2[C@@H](C)Oc2cc(Br)cnc2N)c(Cl)n1 [Mesylate Salt]
8
